Test system: A549
test: Cytotoxicity against human A549 cells after 48 hrs by SRB assay
Format: functional, cell-based
conditions_used: A549, 48 h
Each entry below lists one item and its recorded IC50 value.

CC(C)CC(=O)O[C@@H]1OC=C(CO[C@@H]2O[C@H](CO)[C@@H](O)[C@H](O)[C@H]2OC(=O)/C=C/c2ccc(O)cc2)[C@H]2CC[C@](O)(CO)[C@@H]12; > 10 µM
CC(C)CC(=O)O[C@@H]1OC=C(CO[C@@H]2O[C@H](CO)[C@@H](O)[C@H](O)[C@H]2O)[C@H]2C[C@H](O)[C@](O)(CO)[C@@H]12; > 10 µM

Could you now look at the following molecule, please?
Query: Reported IC50 for A549, given CCC(C)C(=O)O[C@@H]1OC=C(CO[C@@H]2O[C@H](CO)[C@@H](O)[C@H](O)[C@H]2OC(=O)/C=C/c2ccc(O)cc2)[C@H]2CC[C@](O)(CO)[C@@H]12 (stereo partly drawn) ?
Response: 3.8 µM

Measured values drawn from ChEMBL document CHEMBL4130405 for this set.
